Provenance of the data: patent US4606911A

System: S. mutans OMZ 176 (serotype d)
Assay: microbe, parasite or virus in culture
Assay type: cell-based
Details: Streptococcus mutans, read-out: Adherence-inhibiting activity (AIP)
Exercise: for every item that follows, state its recorded inhibition at 30 µg/mL.

Just so you know, measured inhibition at 30 µg/mL for COC(=O)[C@]12CCC(C)(C)C[C@H]1C1=CC[C@@H]3[C@@]4(C)CC[C@H](O)C(C)(C)[C@@H]4CC[C@@]3(C)[C@]1(C)CC2 [Methyl oleanolate (17-position) (a), Methyl oleanolate, reference compound] came out at < 25%

Just so you know, measured inhibition at 30 µg/mL for CC1(C)CC[C@]2(C(=O)O)CC[C@]3(C)C(=CC[C@@H]4[C@@]5(C)CC[C@H](O)[C@@](C)(CO)[C@@H]5CC[C@]43C)[C@@H]2C1 [Hederagenin] came out at > 50%

Just so you know, measured inhibition at 30 µg/mL for CC1(C)CC[C@]2(C)CC=C3[C@]4(C)CC[C@H]5C(C)(C)[C@@H](O)CC[C@]5(C)[C@H]4CC[C@@]3(C)[C@@H]2C1 [Taraxerol, reference compound] came out at < 25%

Just so you know, measured inhibition at 30 µg/mL for CC1(C)CC[C@]2(CO)CC[C@]3(C)C(=CC[C@@H]4[C@@]5(C)CC[C@H](O)C(C)(C)[C@@H]5CC[C@]43C)[C@@H]2C1 [Oleanolic acid (acid reductant) (b), reference compound] came out at < 25%

Just so you know, measured inhibition at 30 µg/mL for CC(=O)O[C@H]1CC[C@]2(C)[C@H]3CC=C4[C@@H]5CC(C)(C)CC[C@]5(C(=O)O)CC[C@@]4(C)[C@]3(C)CC[C@H]2C1(C)C [reference compound] came out at < 25%

Just so you know, measured inhibition at 30 µg/mL for C[C@H]1[C@H](C)CC[C@]2(C(=O)O)CC[C@]3(C)C(=CC[C@@H]4[C@@]5(C)CC[C@H](O)C(C)(C)[C@@H]5CC[C@]43C)[C@H]12 [Ursolic acid] came out at > 50%

Just so you know, measured inhibition at 30 µg/mL for C[C@@H]1CC[C@]2(C(=O)O)CC[C@]3(C)C(=CC[C@@H]4[C@@]5(C)CC[C@H](O)C(C)(C)[C@@H]5CC[C@]43C)[C@@H]2[C@]1(C)O [Pomolic acid] came out at > 50%

Just so you know, measured inhibition at 30 µg/mL for CC1(C)CC[C@]2(C(=O)O)CC[C@]3(C)C(=CC[C@@H]4[C@@]5(C)CC[C@H](O)C(C)(C)[C@@H]5CC[C@]43C)[C@@H]2C1 [Oleanolic acid] came out at > 50%

Just so you know, measured inhibition at 30 µg/mL for CC1(C)[C@@H](O[C@H]2O[C@H](C(=O)O)[C@@H](O)[C@H](O)[C@H]2O[C@@H]2O[C@H](C(=O)O)[C@@H](O)[C@H](O)[C@H]2O)CC[C@]2(C)[C@H]3C(=O)C=C4[C@@H]5C[C@@](C)(C(=O)O)CC[C@]5(C)CC[C@@]4(C)[C@]3(C)CC[C@@H]12 [Glycyrrizic acid, reference compound] came out at < 25%
